Source: PubChem BioAssay (EPA / NIEHS)

- test-summary: ATG_PBREM_CIS: Attagene CIS-FACTORIAL HepG2 Assay for human Phenobarbital-responsive Enhancer Module (PBREM) (AID 2282955)
- experimental-conditions: HepG2 PBREM cis-reporter, Attagene multiplexed transcription; actives raise or lower the signal
The source made the active and inactive calls. The calls were made as follows: active = hit-call score of the fitted dose curve at least 0.9, where 1 is the maximum; inactive = score below 0.9.
Log the outcome using a class from active, inactive

These solved cases illustrate the format of a correct answer.
CCCCCCCCCCCCCCCS(=O)(=O)Oc1ccccc1 | inactive
OCCC(F)(F)C(F)(F)C(F)(F)C(F)(F)C(F)(F)C(F)(F)F | inactive
C=C(C)C(=O)OCCC(F)(F)C(F)(F)C(F)(F)C(F)(F)C(F)(F)C(F)(F)F | inactive
CCc1ccc(CCOc2ccc(CC3SC(=O)NC3=O)cc2)nc1 (centres undefined) | inactive
CC[C@H](C)[C@@H](C(=O)O)n1sc2ccccc2c1=O | inactive
CCCOC(=O)c1ccc(O)cc1 | inactive
CCCCCCCCOC(=O)CCCCCCCCC(=O)OCCCCCCCC | inactive
COc1cc(CCC(=O)CC(=O)CCc2ccc(O)c(OC)c2)ccc1O | inactive
CCC(C)(C)C1CCC(O)CC1 (centres undefined) | inactive
CCCCCCCCCCCCc1ccccc1S(=O)(=O)O | inactive

Query block: Write down the call the test reported for this molecule. Item: CCCCCCCCCCCCCC[N+](C)(C)C
Result block: inactive

----------
- Read-out: Paternally Expressed 10 (PEG10), PEG10 (gene 23089)
- test-summary: LTEA_HepaRG_PEG10: Life Technologies and Expression Analysis (LTEA) Assay for Paternally Expressed 10 (PEG10) using HepaRG (AID 2283520)
- experimental-conditions: mRNA level, 48 h; actives raise or lower the signal
Activity calls are given as the source filed them. How the source made its calls: active means hit-call score of the fitted dose curve at least 0.9, where 1 is the maximum; inactive means score below 0.9.
Give one outcome, nothing more. List: active, inactive

Below are worked cases with known answers.
COC(=O)CCCCC(=O)OC | inactive
c1ccc2c(c1)Cc1ccccc1-2 | inactive
CCc1ccc(CCOc2ccc(CC3SC(=O)NC3=O)cc2)nc1 (stereo unspecified) | active
CCN(CC)CCNc1ccc(CNC=O)c2sc3ccc(OC)cc3c(=O)c12 | active
CCCOc1sc(C(=O)N2CCC(c3cc(CN)ccc3F)CC2)c(C)c1Br | inactive

Consider the additional compound presented here.
Query block: I would be grateful if you could indicate the recorded call for OCCC(F)(F)C(F)(F)C(F)(F)C(F)(F)C(F)(F)C(F)(F)F .
Result block: inactive

----------
- test-summary: CEETOX_H295R_PROG: CeeTox H295R High-throughput Steroidogenesis Assay for Progesterone (PROG) (AID 2283442)
- experimental-conditions: actives raise or lower the signal
The source made the active and inactive calls. How the source made its calls: active means hit-call score of the fitted dose curve at least 0.9, where 1 is the maximum; inactive means score below 0.9.
Thanks in advance; please answer with one of these: active, inactive

// known answers, use as guide
c1ccc2c(c1)ccc1ccccc12 | inactive
Nc1cccc2c(N)cccc12 | active
C[C@@H]1C[C@H]2[C@@H]3CCC4=CC(=O)C=C[C@]4(C)[C@@]3(F)[C@@H](O)C[C@]2(C)[C@@]1(O)C(=O)COP(=O)(O)O | inactive

Query block: Query: recorded result category for CCc1nn(C2CCCCC2)c2cc(C3(C#N)CCC(C(=O)O)CC3)ccc12 (stereo not given) in this test
Result block: inactive

Query block: Please indicate how the test categorized CCC(=C(c1ccc(O)cc1)c1ccc(OCCN(C)C)cc1)c1ccccc1 .
Result block: inactive

Query block: // outcome(item) with item = O=C(O)c1ccccc1C(c1ccc(O)cc1)c1ccc(O)cc1
Result block: active

Query block: Please indicate how the test categorized O=[N+]([O-])c1ccc(O)cc1 .
Result block: inactive

Query block: Could you kindly confirm the outcome this assay logged for CCCOC(=O)c1ccc(O)cc1 ?
Result block: active

Query block: Called result for NC(=O)N(O)[C@@H]1C=C[C@H](Oc2cccc(Oc3ccc(F)cc3)c2)C1
Result block: inactive

Query block: What outcome does the record of this test show for CCCCCCCCC(=O)O ?
Result block: inactive

----------
- Read-out: Intercellular Adhesion Molecule 1 (ICAM1), ICAM1 (gene 3383)
- test-summary: LTEA_HepaRG_ICAM1: Life Technologies and Expression Analysis (LTEA) Assay for Intercellular Adhesion Molecule 1 (ICAM1) using HepaRG (AID 2283507)
- experimental-conditions: mRNA level, 48 h; actives raise or lower the signal
Calls of active or inactive are those of the source. The calls were made as follows: active = hit-call score of the fitted dose curve at least 0.9, where 1 is the maximum; inactive = score below 0.9.
Returns: one label drawn from active, inactive

Solved cases (3 shown):
CCCCC(CC)COC(=O)CCCCC(=O)OCC(CC)CCCC (centres undefined) | inactive
CN1CCC[C@H]1c1cccnc1 | inactive
COCC(C)OCC(C)O (centres undefined) | inactive

Query block: Test call, this compound: Cc1cc(CCN2CCN(c3nsc4ccccc34)CC2)cc2c1NC(=O)CC2(C)C
Result block: inactive

Query block: Hi, do you know how COc1ccc([N+](=O)[O-])cc1N came out in this test?
Result block: inactive

Query block: Please let me know the test result on file for COCC(C)O (centres undefined) .
Result block: inactive

Query block: Recorded test call requested for CCC(C)(C)C1CCC(O)CC1 (centres undefined)
Result block: inactive

Query block: In this assay, the call recorded for CCCCCCCC(=O)O was what?
Result block: active

----------
- Read-out: Monocyte Chemoattractant Protein-1 (MCP1), CCL2 (gene 6347)
- test-summary: BSK_LPS_MCP1: BioMAP Diversity Plus: LPS Assay for Monocyte Chemoattractant Protein-1 (MCP1) Biomarker Activity (AID 2283081)
- experimental-conditions: primary human HUVEC with PBMC; actives raise or lower the signal
Calls of active or inactive are those of the source. How the source made its calls: active means hit-call score of the fitted dose curve at least 0.9, where 1 is the maximum; inactive means score below 0.9.
Use one of these outcomes when replying: active, inactive

Observe how each entry below is paired with its result.
CC(C)CCCCCCOC(=O)CCCCC(=O)OCCCCCCC(C)C | inactive
COCC(C)OCC(C)O (configuration not stated) | inactive
CCOC(=O)CC(O)(CC(=O)OCC)C(=O)OCC | inactive
N#C[C@@H]1CC(F)(F)CN1C(=O)CNC1CC2CCC(C1)N2c1ncccn1 (some centres not stated) | inactive
Oc1cccc(O)c1 | inactive
FC(F)(I)C(F)(F)C(F)(F)C(F)(F)C(F)(F)C(F)(F)I | active
NCC(F)(F)C(F)(F)C(F)(F)C(F)(F)C(F)(F)C(F)(F)C(F)(F)F | inactive
C[C@@H]1C[C@H]2[C@@H]3CCC4=CC(=O)C=C[C@]4(C)[C@@]3(F)[C@@H](O)C[C@]2(C)[C@@]1(O)C(=O)COP(=O)(O)O | inactive

Query block: What call does the record list for CN(C)C=O ?
Result block: inactive

Query block: Answer briefly: the call reported for CCCOC(=O)c1ccc(O)cc1 in this assay.
Result block: inactive

Query block: State the result this test recorded for c1ccc2c(c1)ccc1ccccc12 .
Result block: inactive

Query block: Name the outcome recorded for OCCC(F)(F)C(F)(F)C(F)(F)C(F)(F)C(F)(F)C(F)(F)F in the assay.
Result block: inactive

----------
- Read-out: Interferon-gamma inducible Protein 10 (IP10), CXCL10 (gene 3627)
- test-summary: BSK_BE3C_IP10: BioMAP Diversity Plus: BE3C Assay for Interferon-gamma inducible Protein 10 (IP10) Biomarker Activity (AID 2283034)
- experimental-conditions: primary human bronchial epithelial cells; actives raise or lower the signal
- Procedure: BSK_BE3C is a cell-based, multiplexed-readout assay that uses bronchial epithelial cell, a human lung primary cell, with measurements taken at 24 hours after chemical dosing in a 96-well plate.BSK_BE3C_IP10 is an assay component measured in the BSK_BE3C assay. It measures IP-10 antibody related to regulation of gene expression using ELISA technology.Data from the assay component BSK_BE3C_IP10 was analyzed into 1 assay endpoint. […]
Calls of active or inactive are those of the source. How the source made its calls: active means hit-call score of the fitted dose curve at least 0.9, where 1 is the maximum; inactive means score below 0.9.
Pick from active, inactive when you respond.

CN(C)C=O | inactive

Could you now consider this next compound?
Query block: For this compound, state the assay outcome: CCc1ccc(CCOc2ccc(CC3SC(=O)NC3=O)cc2)nc1 (configuration not stated)
Result block: inactive

----------
- test-summary: CCTE_Shafer_MEA_acute_spike_number: CCTE's Neural Acute Assay for Total Number of Spikes, Shafer Lab (AID 2284008)
The source made the active and inactive calls. Rule for the calls: active = hit-call score of the fitted dose curve at least 0.9, where 1 is the maximum; inactive = score below 0.9.
Result category, one only: yes for active, no for inactive

Use the examples below as a reference point.
CC(C)(C)c1cc(C(C)(C)C)c(O)c(C(C)(C)C)c1 | no
Cc1cc(CCN2CCN(c3nsc4ccccc34)CC2)cc2c1NC(=O)CC2(C)C | yes
CCCOc1sc(C(=O)N2CCC(c3cc(CN)ccc3F)CC2)c(C)c1Br | no

Query block: Record lookup: outcome of this test for CCCCCCCCCCCCc1ccccc1S(=O)(=O)O ?
Result block: no

Query block: State the result this test recorded for CN(C)C=O .
Result block: no

Query block: What classification did CCC(=C(c1ccc(O)cc1)c1ccc(OCCN(C)C)cc1)c1ccccc1 end up with in this test?
Result block: no

Query block: Name the outcome recorded for CC[C@H](c1ccc(O)cc1)[C@@H](CC)c1ccc(O)cc1 in the assay.
Result block: no
